The origin of these recorded values is paper PMC9896561.

# system: T1, T4 DNA ligase (T4DL) (UniProt P00970 1-487)
# T1 sequence: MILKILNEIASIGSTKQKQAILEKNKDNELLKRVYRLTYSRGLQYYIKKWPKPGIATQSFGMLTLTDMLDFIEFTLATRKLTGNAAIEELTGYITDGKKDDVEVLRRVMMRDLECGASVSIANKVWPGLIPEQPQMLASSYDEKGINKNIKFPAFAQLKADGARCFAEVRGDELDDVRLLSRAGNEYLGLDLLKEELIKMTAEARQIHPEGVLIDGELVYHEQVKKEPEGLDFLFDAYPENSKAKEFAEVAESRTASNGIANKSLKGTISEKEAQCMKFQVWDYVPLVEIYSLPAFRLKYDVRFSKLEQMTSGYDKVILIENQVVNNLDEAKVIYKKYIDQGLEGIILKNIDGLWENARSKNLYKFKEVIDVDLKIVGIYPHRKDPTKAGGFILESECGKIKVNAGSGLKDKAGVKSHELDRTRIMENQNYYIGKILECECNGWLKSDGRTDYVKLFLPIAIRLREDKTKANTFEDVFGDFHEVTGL
# procedure text: fluorescence anisotropy
readout kind: pKd
pKd here: minus log base 10 of the concentration, concentration in moles per litre.

*Q* May I ask what pKd has been recorded for DAS1M (structured_DNA, 5' phosphate) DNA: ATCTCGACTAGTCAGTCTCCCCAGCTAAAAAAAAAAAAAGTTGGGGAAAAAAAAAATCCGAATGTCTCGGAT ?
*A* 5.90
